- testedSystem: T1, RBFOX1 RRM (Homo sapiens, UniProt Q9NWB1 109-208)
- T1 sequence: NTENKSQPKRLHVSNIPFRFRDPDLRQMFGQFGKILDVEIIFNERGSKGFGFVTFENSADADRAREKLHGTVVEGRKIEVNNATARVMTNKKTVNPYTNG
- experiment: EMSA; HiTS-Eq, 1 nM pool, 10 min; buffer printed only for the single-RNA assays: 10 mM Tris pH 7.5, 150 mM NaCl, 3.4 mM EDTA, 0.001% NP-40, 30 C
- studyConditions: tags: His6 N-terminal (pET28a); label: 5' 32P
Over roughly 16,000 sequences, “ka relative to ugcaugu” has its median near 0.0091; the highest 2% begin near 0.032. This is one part of a sample in which the highest values are shown more often than they occur.
Please provide measured binding signal for the entries that follow.

Below are worked cases with known answers.
binder	propertyMeasured	result
ACGUUUU (DNA:RNA) RNA: GGGAGACCGGAAUUCAGAUUGUCCACGUUUUUUAAAUCCCGUCGUAGCCACCA DNA 1: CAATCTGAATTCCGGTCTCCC DNA 2: TGGTGGCTACGACGGGATT	binding signal	0.00473 KA relative to UGCAUGU
GCACGUU (DNA:RNA) RNA: GGGAGACCGGAAUUCAGAUUGUCCGCACGUUUUAAAUCCCGUCGUAGCCACCA DNA 1: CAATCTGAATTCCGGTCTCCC DNA 2: TGGTGGCTACGACGGGATT	binding signal	0.043 KA relative to UGCAUGU
CGUUUGA (DNA:RNA) RNA: GGGAGACCGGAAUUCAGAUUGUCCCGUUUGAUUAAAUCCCGUCGUAGCCACCA DNA 1: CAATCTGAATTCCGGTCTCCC DNA 2: TGGTGGCTACGACGGGATT	binding signal	0.0182 KA relative to UGCAUGU

input: # query: binding signal of entry UGUUUGU (DNA:RNA) RNA: GGGAGACCGGAAUUCAGAUUGUCCUGUUUGUUUAAAUCCCGUCGUAGCCACCA DNA 1: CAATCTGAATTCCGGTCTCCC DNA 2: TGGTGGCTACGACGGGATT
output: 0.0434 KA relative to UGCAUGU
